molecular target: human MMP13 (Homo sapiens (Human)); details: read-out: hMMP-13 potency IC50
# IC50 per record follows

O=C1NC(=O)[C@](CCC(=O)N2CCN(c3cc(Cl)cc(Cl)c3)CC2)(C2CC2)N1 ... > 20 µM
CCC(CC1(C)NC(=O)NC1=O)C(=O)N1CCN(c2cc(Cl)cc(Cl)c2)CC1 (stereo not shown) [compound 435] ... 1.22 µM
C[C@H]1CN(C(=O)CCC2(C3CC3)NC(=O)NC2=O)CCN1c1ccc(Cl)c(Cl)c1 (stereo partly shown) [compound 167] ... > 4 µM

Entry Cc1cc(Cl)c(F)cc1N1CCN(C(=O)CCC2(C)NC(=O)NC2=O)CC1 (stereo not shown) — recorded IC50 = > 20 µM

Entry C[C@H]1CN(C(=O)CCC2(C3CC3)NC(=O)NC2=O)CCN1c1ccc(F)c(F)c1 (stereo partly shown) — recorded IC50 = > 20 µM

Entry O=C1NC(=O)C(CCC(=O)N2CCN(c3cccc(Cl)c3)CC2)(C2CCCC2)N1 (stereo not shown) — recorded IC50 = > 4 µM

Entry Cc1c(F)cccc1N1CCN(C(=O)CCC2(c3ccccn3)NC(=O)NC2=O)CC1 (stereo not shown) — recorded IC50 = > 20 µM

###

Below are compounds with their IC50 as measured on human MMP14 (Homo sapiens (Human), UniProt P50281).

Consider the reported IC50 for these compounds:
CC(CC1(CN2CCOCC2)NC(=O)NC1=O)C(=O)N1CCN(c2cc(Cl)cc(Cl)c2)CC1 (centres unmarked) ... > 20 µM
C[C@H]1CN(C(=O)CCC2(c3cccnc3)NC(=O)NC2=O)CCN1c1cccc(F)c1 (some centres unmarked) ... > 4 µM

Entry CC(CC1NC(=O)NC1=O)C(=O)N1CCN(c2ccc(F)c(F)c2)[C@@H](C)C1 (some centres unmarked) — recorded IC50 = > 4 µM

Entry C[C@H]1CN(C(=O)CCC2(c3cnccn3)NC(=O)NC2=O)CCN1c1cc(F)cc(Cl)c1 (some centres unmarked) — recorded IC50 = > 4 µM

Entry C[C@H]1CN(C(=O)CC[C@@]2(C3CC3)NC(=O)NC2=O)CCN1c1cc(Cl)cc(Cl)c1 — recorded IC50 = > 20 µM

###

biological target: human MMP13 (Homo sapiens (Human)); conditions: read-out: hMMP-13 potency IC50
pIC50: −log10 of the molar value.
# pIC50 per record follows

Consider the reported pIC50 for these compounds:
C[C@H]1CN(C(=O)CC[C@@]2(C3CC3)NC(=O)NC2=O)CCN1c1cccc(F)c1 ... < 4.70
CC(CC1(C)NC(=O)NC1=O)C(=O)N1CCN(c2ccc(F)c(Cl)c2)[C@@H](C)C1 (stereo partly drawn) [compound 405] ... 5.63
O=C1Cc2cc(C3(CCC(=O)N4CCN(c5cccc(Cl)c5)CC4)NC(=O)NC3=O)ccc2N1 (stereo not drawn) ... < 5.40
CC1CN(C(=O)CCC2(c3cccnc3)NC(=O)NC2=O)CCN1c1ccccc1 (stereo not drawn) ... < 4.70
Cc1ccc(F)cc1N1CCN(C(=O)C(C)CC2(C)NC(=O)NC2=O)C[C@@H]1C (stereo partly drawn) ... < 4.70

Entry COC(CC1(C)NC(=O)NC1=O)C(=O)N1CCN(c2cc(Cl)cc(Cl)c2)CC1 (stereo not drawn) — recorded pIC50 = < 5.40

Entry C[C@H]1CN(C(=O)CC[C@@]2(C3CC3)NC(=O)NC2=O)CCN1c1cc(Cl)cc(Cl)c1 — recorded pIC50 = < 4.92

Entry Cc1ccc(C2(CCC(=O)N3CCN(c4cccc(Cl)c4)CC3)NC(=O)NC2=O)cc1 (stereo not drawn) — recorded pIC50 = 5.69

Entry COC(CC1(C2CC2)NC(=O)NC1=O)C(=O)N1CCN(c2cc(Cl)cc(Cl)c2)CC1 (stereo not drawn) — recorded pIC50 = < 5.40

Entry CC(CC1(C)NC(=O)NC1=O)C(=O)N1CCN(c2ccc(F)c(Cl)c2)[C@@H](C)C1 (stereo partly drawn) [compound 422] — recorded pIC50 = 5.63

Entry Cc1ccc(F)cc1N1CCN(C(=O)CCC2(C3CC3)NC(=O)NC2=O)CC1 (stereo not drawn) — recorded pIC50 = < 4.70

Entry Cc1ccc(F)cc1N1CCN(C(=O)CCC2(C)NC(=O)NC2=O)C[C@@H]1C (stereo partly drawn) — recorded pIC50 = < 4.70
